Here we gather pIC50 data for UniProt:P11712 reported by several publications.
pIC50: −log10 of the molar value.

compound	pIC50
O=C(O)C1CN(C2CC[C@]3(Cc4ccccc4Cc4ccccc43)C2)C1 (some centres undefined)	< 5.00
CC(C)Oc1ncc(-c2nc(-c3cccc4c3OCCNC4CCCC(=O)O)no2)cc1Cl (stereo in doubt; 31b)	< 4.30
CC(=O)c1ccc(-n2nc(C(F)(F)F)c3c2CCCC3)cc1	5.40

Prompt: Return reported pIC50; argument: CC(CCN1CCOCC1)CC(=O)Nc1ccc(C(=O)Nc2nccs2)cc1 (centres undefined)
Response: < 4.40

Prompt: Again, but for Cc1cc(C(=O)NC2CC2)cc2[nH]c(-c3c(NCC(O)c4cccc(Cl)c4)cc[nH]c3=O)nc12 (centres undefined)
Response: 5.09

Prompt: And for `CCCCNC(=O)NS(=O)(=O)c1ccc(CO)cc1` ?
Response: < 4.60

Prompt: What do you have for `COc1ccc(CCN(C)CCNC(=O)c2ccccc2NC(=O)c2cnc3ccccc3c2)cc1OC` ?
Response: 5.68

Prompt: For `Fc1ccc(Oc2ncnc3[nH]ccc23)cc1` then?
Response: < 4.70

Prompt: Thanks! And COc1cc2c(cc1OCC(F)(F)F)CCN1CC(CC(C)C)C(O)CC21 (centres undefined) ?
Response: < 4.00

Prompt: Follow-up item: `CNc1nc(C)nc(N2CCC(C(=O)NCc3ccccc3)CC2)n1`
Response: < 4.60

Prompt: Okay, and `N#Cc1ccc(COc2ccc3nc(N)sc3c2)cc1` ?
Response: < 4.60

Prompt: Can you check COc1ccc(C2(OCC(F)(F)F)Sc3ccccc3-n3c2noc3=O)cc1 (centres undefined) next?
Response: < 4.70

Prompt: How about `C[C@H](Nc1ccc2c(c1)OCCn1cc(N3C(=O)OC[C@H]3C(F)F)nc1-2)C(N)=O` ?
Response: < 5.00

Prompt: Repeat with O=C(N[C@H]1CC/C(=C\c2cccc(Oc3ccc(C(F)(F)F)cn3)c2)CC1)c1cccnc1 (centres undefined)
Response: 5.57

Prompt: Now consider `Nc1nc2cc(-c3ccc4ncc(C(=O)N5CCOCC5)n4c3)ccc2o1` .
Response: < 5.00

Prompt: Follow-up item: `COc1ccc(CC(=O)O)cc1-c1ccc(C(F)(F)F)cc1CN1C(=O)O[C@H](c2ccccc2)[C@@H]1C`
Response: < 4.52

Prompt: `C[C@]1(F)CCC[C@H]1Nc1c(C(N)=O)cnn2cccc12` , same question.
Response: < 4.70

Prompt: Next: `CCn1nc(C)cc1C(=O)Nc1nc2cc(C(N)=O)cc(OC)c2n1C/C=C/Cn1c(NC(=O)c2cc(C)nn2CC)nc2cc(C(N)=O)cc(OCCCNC(=O)OC(C)(C)C)c21`
Response: < 4.00

Prompt: What do you get for CC(C)S(=O)(=O)NC1Cc2ccc(-c3cncc(C#N)c3)cc2C1 (centres undefined) ?
Response: < 5.00
